# maps each entry to its IC50
Molecular target: UniProt P25106
Sequence (P25106 whole entry): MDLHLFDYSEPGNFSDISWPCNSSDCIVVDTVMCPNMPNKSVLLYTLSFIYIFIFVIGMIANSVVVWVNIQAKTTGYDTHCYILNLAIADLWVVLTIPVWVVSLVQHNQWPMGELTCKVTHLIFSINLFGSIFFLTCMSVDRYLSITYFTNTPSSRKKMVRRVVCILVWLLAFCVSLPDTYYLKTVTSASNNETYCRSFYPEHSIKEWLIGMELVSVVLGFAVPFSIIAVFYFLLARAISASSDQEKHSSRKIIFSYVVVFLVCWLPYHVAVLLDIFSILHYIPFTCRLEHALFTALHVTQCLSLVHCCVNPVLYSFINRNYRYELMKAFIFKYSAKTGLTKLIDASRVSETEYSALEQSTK
Experiment: CXCR7 β-arrestin recruitment assay in CHO-CXCR7 cells (ProLink/EA β-galactosidase complementation), induced by human SDF-1a
Conditions: assay buffer, SDF-1a at EC50 concentration
Experimental: CXCR7 is fused in frame with a small enzyme donor fragment ProLink and co-expressed in CHO cells stably expressing a fusion protein of β-arrestin and the larger, N-terminal deletion mutant of β-galactosidase (called enzyme acceptor or EA). […] The β-galactosidase enzyme activity is measured with a substrate that generates fluorescence. […]
Measurement Kind: IC50

>>> test_value("Cc1cc(C)nc(C(C)(C)NC(=O)CC2(NC(=O)c3cc(-c4ccc(F)cc4F)on3)CN(CC3(C)CCC3)C2)n1")
"< 5 nM"
>>> test_value("Cc1cc(Cl)cc(C(C)(C)NC(=O)CC2(NC(=O)c3nnc(-c4ccc(F)cc4F)s3)CN([C@H]3CC[C@](C)(O)CC3)C2)c1")
"5 to 100 nM"
>>> test_value("CC(C)(NC(=O)CC1(NC(=O)c2cc(-c3ccc(F)cc3F)on2)CN([C@H]2CC[C@](C)(O)CC2)C1)c1cccc(Cl)c1")
"< 5 nM"
>>> test_value("CC1(CN2CC(CC(=O)NC(C)(C)c3cccc(Cl)c3)(NC(=O)c3cc(-c4ccc(F)cc4F)on3)C2)COC1")
"< 5 nM"
>>> test_value("CC(C)(O)CCN1CC(CC(=O)NC(C)(C)c2ccccn2)(NC(=O)c2cc(-c3ccc(F)cc3F)on2)C1")
"1000 to 20000 nM"
